- systemName: Grb2 SH2 (UniProt P62993)
- assayProcedure: SH2 binding enrichment of the phosphorylated peptide, bacterial display (enrichment ratio); higher = better substrate or ligand; peptides without Tyr show the background;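 further: peptide library displayed on the E. coli surface as eCPX fusions, selected cells deep-sequenced, score is each peptide's frequency after selection divided by its frequency in the input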
quantityKind: SH2 binding enrichment

The examples below pair each entry with its known result.
TDGNGYISFNE [LCP1_Y28] = 0.922
LNPLIYSLRNK [OR5R1_Y290] = 0.86
FGSIMYEFVGK [SLC18A1_Y251_V249I] = 0.867
LASSEYPVQRR [GALK1_Y236_R239Q] = 1.16
LEISPYMLSGP [LRRK2_Y1718_R1723P] = 0.904

A = DFPGNYSGFDD [POLR1C_Y33_YF]
B = EEQKRYYNAMK [SCN5A_Y1494_K1493R]
Ask: Identify the item whose SH2 binding enrichment is the smaller number: A or B Identify your selection by its label.
Result: A
(A: 0.839, B: 1.32)
